- System: Pichia kudriavzevii
- assay comment: Antifungal activity against Candida krusei 477 assessed as fungal growth inhibition incubated for 48 hrs by broth microdilution method
- Format: functional
measure name: MIC (µg/mL)

compound="Oc1c(I)cc(Cl)c2cccnc12 [CLIOQUINOL]" endpoint_unit=µg/mL numeric_readout=0.25
compound="CCN(CC)c1ccc(C(NC(=O)C(C)C)c2ccc3cccnc3c2O)cc1 (stereo not given)" endpoint_unit=µg/mL numeric_readout=0.125
compound="OC(Cn1cncn1)(Cn1cncn1)c1ccc(F)cc1F [FLUCONAZOLE]" endpoint_unit=µg/mL numeric_readout=0.25
compound="COc1ccccc1C(NC(=O)Cc1ccccc1)c1ccc2cccnc2c1O (stereo not given)" endpoint_unit=µg/mL numeric_readout=0.25
compound="Cc1ccc(C(NC(=O)CC(C)C)c2ccc3cccnc3c2O)cc1 (stereo not given)" endpoint_unit=µg/mL numeric_readout=0.125

----------
- System: Cryptococcus neoformans
- assay comment: Antifungal activity against Cryptococcus neoformans 444 assessed as fungal growth inhibition incubated for 48 hrs by broth microdilution method
- Format: functional
measure name: MIC (µg/mL)

compound="COc1ccccc1C(NC(=O)Cc1ccccc1)c1ccc2cccnc2c1O (stereo not given)" endpoint_unit=µg/mL numeric_readout=0.125
compound="Oc1c(I)cc(Cl)c2cccnc12 [CLIOQUINOL]" endpoint_unit=µg/mL numeric_readout=0.125
compound="CCN(CC)c1ccc(C(NC(=O)C(C)C)c2ccc3cccnc3c2O)cc1 (stereo not given)" endpoint_unit=µg/mL numeric_readout=0.016
compound="Cc1ccc(C(NC(=O)CC(C)C)c2ccc3cccnc3c2O)cc1 (stereo not given)" endpoint_unit=µg/mL numeric_readout=0.016
compound="OC(Cn1cncn1)(Cn1cncn1)c1ccc(F)cc1F [FLUCONAZOLE]" endpoint_unit=µg/mL numeric_readout=8

----------
- Tested on: Aspergillus fumigatus
- assay comment: Antifungal activity against Aspergillus fumigatus 7544 assessed as fungal growth inhibition incubated for 48 hrs by broth microdilution method
- Type: functional
Reported MIC by item:
measure name: MIC (µg/mL)

compound=Oc1c(I)cc(Cl)c2cccnc12 target="Aspergillus fumigatus" relation_qualifier== numeric_readout=0.25
compound="CCN(CC)c1ccc(C(NC(=O)C(C)C)c2ccc3cccnc3c2O)cc1 (stereo not given)" target="Aspergillus fumigatus" relation_qualifier== numeric_readout=1
compound=OC(Cn1cncn1)(Cn1cncn1)c1ccc(F)cc1F target="Aspergillus fumigatus" relation_qualifier=> numeric_readout=64
compound="COc1ccccc1C(NC(=O)Cc1ccccc1)c1ccc2cccnc2c1O (stereo not given)" target="Aspergillus fumigatus" relation_qualifier== numeric_readout=2
compound="Cc1ccc(C(NC(=O)CC(C)C)c2ccc3cccnc3c2O)cc1 (stereo not given)" target="Aspergillus fumigatus" relation_qualifier== numeric_readout=0.5

----------
- assay comment: MRT (0 to t) in Sprague-Dawley rat at 5 mg/kg, po by LC-MS/MS analysis
- Assay type: ADME, organism-based
- particulars: in vivo
measure name: MRT last (min)

molecule="CCN(CC)c1ccc(C(NC(=O)C(C)C)c2ccc3cccnc3c2O)cc1 (stereo unspecified)" measure_name="MRT last" endpoint_unit=min numeric_readout=48.8

----------
- assay comment: C0 in Sprague-Dawley rat at 2 mg/kg, iv by LC-MS/MS analysis
- Type: ADME, organism-based
- particulars: in vivo
measure name: C0 (ng/mL)

molecule="CCN(CC)c1ccc(C(NC(=O)C(C)C)c2ccc3cccnc3c2O)cc1 (stereo unspecified)" numeric_readout=2460

----------
- assay comment: AUC (0 to infinity) in Sprague-Dawley rat at 5 mg/kg, po by LC-MS/MS analysis
- Type: ADME, organism-based
- Set-up: dose 5 mg/kg, route po
- particulars: in vivo
measure name: AUC(0-inf) (ng·h/mL)

compound="CCN(CC)c1ccc(C(NC(=O)C(C)C)c2ccc3cccnc3c2O)cc1 (stereo unspecified)" numeric_readout=158

----------
- assay comment: Oral bioavailability in Sprague-Dawley rat at 5 mg/kg by LC-MS/MS analysis
- Format: ADME, organism-based
- particulars: in vivo
measure name: bioavailability (%)

compound="CCN(CC)c1ccc(C(NC(=O)C(C)C)c2ccc3cccnc3c2O)cc1 (stereo unspecified)" endpoint_unit=% numeric_readout=5.7

----------
- Tested on: Pichia kudriavzevii
- assay comment: Antifungal activity against Candida krusei 69 assessed as fungal growth inhibition incubated for 48 hrs by broth microdilution method
- Type: functional
measure name: MIC (mg/L)

molecule="COc1ccccc1C(NC(=O)Cc1ccccc1)c1ccc2cccnc2c1O (stereo not given)" measure_name=MIC endpoint_unit=mg/L numeric_readout=0.25
molecule="Oc1c(I)cc(Cl)c2cccnc12 [CLIOQUINOL]" measure_name=MIC endpoint_unit=mg/L numeric_readout=0.125
molecule="Cc1ccc(C(NC(=O)CC(C)C)c2ccc3cccnc3c2O)cc1 (stereo not given)" measure_name=MIC endpoint_unit=mg/L numeric_readout=0.125
molecule="OC(Cn1cncn1)(Cn1cncn1)c1ccc(F)cc1F [FLUCONAZOLE]" measure_name=MIC endpoint_unit=mg/L numeric_readout=0.25
molecule="CCN(CC)c1ccc(C(NC(=O)C(C)C)c2ccc3cccnc3c2O)cc1 (stereo not given)" measure_name=MIC endpoint_unit=mg/L numeric_readout=0.125

----------
- assay comment: Half life in Sprague-Dawley rat at 5 mg/kg, po by LC-MS/MS analysis
- Type: ADME, organism-based
- particulars: in vivo
measure name: half-life (h)

compound="CCN(CC)c1ccc(C(NC(=O)C(C)C)c2ccc3cccnc3c2O)cc1 (stereo unspecified)" numeric_readout=1

----------
Reported MIC by item:
- System: Candida tropicalis
- assay comment: Antifungal activity against Candida tropicalis 184 assessed as fungal growth inhibition incubated for 48 hrs by broth microdilution method
- Format: functional
measure name: MIC (µg/mL)

molecule="COc1ccccc1C(NC(=O)Cc1ccccc1)c1ccc2cccnc2c1O (stereo not given)" relation_qualifier=> numeric_readout=64
molecule="OC(Cn1cncn1)(Cn1cncn1)c1ccc(F)cc1F [FLUCONAZOLE]" relation_qualifier== numeric_readout=2
molecule="Oc1c(I)cc(Cl)c2cccnc12 [CLIOQUINOL]" relation_qualifier== numeric_readout=0.125
molecule="CCN(CC)c1ccc(C(NC(=O)C(C)C)c2ccc3cccnc3c2O)cc1 (stereo not given)" relation_qualifier== numeric_readout=0.125
molecule="Cc1ccc(C(NC(=O)CC(C)C)c2ccc3cccnc3c2O)cc1 (stereo not given)" relation_qualifier== numeric_readout=0.125

----------
Reported IC50 at 24 h by item:
- assay comment: Cytotoxicity against HUVEC cells assessed as cell growth inhibition incubated for 24 hrs by CCK8 assay
- Assay type: toxicity, cell-based
- particulars: human
measure name: IC50 at 24 h (µg/mL)

molecule="OC(Cn1cncn1)(Cn1cncn1)c1ccc(F)cc1F [FLUCONAZOLE]" measure_name="IC50 at 24 h" numeric_readout=9.18
molecule="CCN(CC)c1ccc(C(NC(=O)C(C)C)c2ccc3cccnc3c2O)cc1 (configuration not stated)" measure_name="IC50 at 24 h" numeric_readout=67.8

Origin of values: ChEMBL document CHEMBL5375952
